These data points were gathered from patent US11247994B2.

Tested on: human breast cancer cells MCF7
assay explanation: MTT assay, tumor cell growth inhibition, MCF7
Format: cell-based
test context: 48 hours
IC50: recorded values

compound: Nc1nc(Cl)nc2c1ncn2[C@H]1C[C@H](O)[C@@H](CO)O1 [Cladribine, reference compound]
IC50: > 100 µM
//
compound: Nc1nc2c(ncn2[C@H]2C[C@H](O)[C@@H](CO)O2)c(=S)[nH]1 [Compound 6-thio-dG, 6-thio-2′-deoxyguanosine, reference compound]
IC50: > 100 µM
//
compound: CC(C)SSc1nc(N)nc2c1ncn2[C@H]1C[C@H](O)[C@@H](CO)O1
IC50: 41.3 µM
//
compound: CCC(C)SSc1ncc[nH]1 (centres unmarked) [PX-12, 1-methylpropyl-2-imidazolyl disulfide, reference compound]
IC50: > 100 µM
//
compound: Nc1nc(SSCc2ccc(F)cc2)c2ncn(C3C[C@H](O)[C@@H](CO)O3)c2n1 (some centres unmarked)
IC50: 15.6 µM
